Would you mind telling me the reported pKd of each entry?
# assayed system: Biotinylated human TSLP (human)
# Sequence (chain, as listed by the source limits assumed): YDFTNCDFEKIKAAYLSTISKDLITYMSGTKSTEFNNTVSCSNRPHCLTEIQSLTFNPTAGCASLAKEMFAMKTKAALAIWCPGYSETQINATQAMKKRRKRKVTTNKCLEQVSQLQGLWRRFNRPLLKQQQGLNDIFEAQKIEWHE
# measurement description: SPR, biotinylated hTSLP on streptavidin chip
*1 amine or outer side, *2 acyl side, *3 side chain or, on linkers, in order; H or OH if unused. Bridges are numbered along the chain shown (N, C = ends). [ ]: non-standard residue; d: D form. TATA = O=C(CC[*:1])N1CN(C(=O)CC[*:2])CN(C(=O)CC[*:3])C1; Trp(1-Me) = Cn1cc(C[C@H](N)C(=O)O)c2ccccc21; Arg(Me2a) = CN(C)C(=N)NCCC[C@H](N)C(=O)O; Phe(4-F) = N[C@@H](Cc1ccc(F)cc1)C(=O)O; tBuAla = CC(C)(C)C[C@H](N)C(=O)O; NMeD = CN[C@@H](CC(=O)O)C(=O)O; NMeA = CN[C@@H](C)C(=O)O
The quantity pKd is defined as the negative base-10 logarithm of the molar concentration.

Record Ac-C[NMeA][Trp(1-Me)][tBuAla]Q[NMeD]C[Trp(1-Me)][Arg(Me2a)]G[Phe(4-F)]C-NH2 (linker 1-7-12 via TATA) [Example 5] . Reported pKd: 8.57

CQXLEDCXXGXC (not fully specified; N-term acetyl; CQ[TrpMe]LEDC[TrpMe][ADMA]G[4-FPhe]C as printed; 3 Cys on TATA) [Example 13] yielded pKd of 8.22
